Assay: soluble on expression in E. coli; label from the status in PepcDB or PDB records
measure: soluble on expression in E. coli

[[record]]
sequence = "MNRHSAGQSTPVRVATLDQLKPGVPTAFDVDGDEVMVVRDGDSVYAISNLCSHAEAYLDMGVFHAESLEIECPLHVGRFDVRTGAPTALPCVLPVRAYDVVVDGTEILVAPKEADHHHHHH"
measure = "soluble on expression in E. coli"
endpoint_result = "soluble"

[[record]]
sequence = "MSRKYFYFDYDYYGMSFCEEEITTEPEEKVAYTSNSGGFADEVTGIPKEGHQSSIGEHSCVMPNTQDTGREEPEETSKVAETSEQSLFRIPRKAYRFTPGQLWELQAVFVENQYPDALKRKELAGLLNVDEQKIKDWFNNKRAKYRKIQREILGGKNITPTQEELRMKTLVESKKIIIFQEQEGDGLFWEHQNIDTQNSPLSLLFS"
measure = "soluble on expression in E. coli"
endpoint_result = "soluble"

[[record]]
sequence = "SVSEIQLMHNLGKHLNSMERVEWLRKKLQDVHNF"
measure = "soluble on expression in E. coli"
endpoint_result = "soluble"

